EXPERIMENTAL SYSTEM: DNA topoisomerase 2-alpha (Homo sapiens) (UniProt P11388)
Sequence (P11388 whole entry): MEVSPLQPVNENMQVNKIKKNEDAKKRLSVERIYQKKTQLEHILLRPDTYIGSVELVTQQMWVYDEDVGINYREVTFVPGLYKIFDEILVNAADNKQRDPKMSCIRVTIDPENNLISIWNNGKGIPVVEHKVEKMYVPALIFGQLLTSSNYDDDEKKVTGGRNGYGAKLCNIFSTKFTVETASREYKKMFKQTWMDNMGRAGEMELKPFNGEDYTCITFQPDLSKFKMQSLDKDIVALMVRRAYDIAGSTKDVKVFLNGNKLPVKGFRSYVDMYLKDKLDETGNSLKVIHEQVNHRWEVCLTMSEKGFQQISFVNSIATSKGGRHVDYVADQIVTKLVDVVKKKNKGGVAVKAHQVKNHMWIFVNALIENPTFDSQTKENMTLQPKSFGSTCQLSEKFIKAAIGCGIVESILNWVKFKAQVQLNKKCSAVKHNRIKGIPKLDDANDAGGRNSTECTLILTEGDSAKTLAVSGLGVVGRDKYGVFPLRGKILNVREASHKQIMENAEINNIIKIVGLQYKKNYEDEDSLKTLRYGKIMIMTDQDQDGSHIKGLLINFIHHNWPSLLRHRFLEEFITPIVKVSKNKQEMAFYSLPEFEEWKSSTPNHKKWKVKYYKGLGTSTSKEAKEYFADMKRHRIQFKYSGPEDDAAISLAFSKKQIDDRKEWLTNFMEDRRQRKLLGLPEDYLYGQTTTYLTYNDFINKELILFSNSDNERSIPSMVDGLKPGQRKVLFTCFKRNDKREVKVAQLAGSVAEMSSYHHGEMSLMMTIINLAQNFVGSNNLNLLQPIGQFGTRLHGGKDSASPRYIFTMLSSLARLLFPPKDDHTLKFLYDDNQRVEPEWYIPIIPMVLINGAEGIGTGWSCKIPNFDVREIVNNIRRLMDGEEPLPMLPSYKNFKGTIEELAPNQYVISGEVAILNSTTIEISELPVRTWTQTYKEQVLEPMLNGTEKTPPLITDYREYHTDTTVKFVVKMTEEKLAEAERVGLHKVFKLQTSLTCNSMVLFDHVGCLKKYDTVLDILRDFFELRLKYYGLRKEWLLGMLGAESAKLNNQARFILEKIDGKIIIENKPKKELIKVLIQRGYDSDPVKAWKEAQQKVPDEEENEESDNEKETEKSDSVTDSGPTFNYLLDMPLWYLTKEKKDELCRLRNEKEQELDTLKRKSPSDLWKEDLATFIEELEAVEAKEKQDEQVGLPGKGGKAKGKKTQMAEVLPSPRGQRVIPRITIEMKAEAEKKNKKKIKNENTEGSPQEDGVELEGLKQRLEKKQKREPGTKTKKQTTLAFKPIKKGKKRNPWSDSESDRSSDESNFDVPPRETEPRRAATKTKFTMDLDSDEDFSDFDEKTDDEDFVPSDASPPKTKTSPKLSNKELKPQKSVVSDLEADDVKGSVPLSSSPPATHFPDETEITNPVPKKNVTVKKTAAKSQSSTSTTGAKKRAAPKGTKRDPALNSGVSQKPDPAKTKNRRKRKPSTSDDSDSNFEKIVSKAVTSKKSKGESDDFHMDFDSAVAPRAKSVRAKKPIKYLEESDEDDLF
PROCEDURE SUMMARY: Inhibition of recombinant human topoisomerase 2alpha assessed as relaxation of supercoiled plasmid DNA pBR322 at 20 uM incubated for 30 mins by agarose gel electrophoresis
MEASUREMENT TYPE: inhibition (%)
Report only the number, with the unit % understood.

Known results for compounds:
STRUCTURE | MEASUREMENT UNIT | inhibition
Cc1ccc2c(=O)[nH]c(-c3ccccc3N(C)C)nc2c1 | % | 41.9
Cc1cccc(-c2nc3cc(C)ccc3c(=O)[nH]2)c1 | % | 24.9
Cc1ccc2nc(-c3cccc(C(F)(F)F)c3)[nH]c(=O)c2c1 | % | 0
COc1cccc(-c2nc3ccc(C)cc3c(=O)[nH]2)c1 | % | 19
Cc1ccc2nc(-c3ccccc3C(F)(F)F)[nH]c(=O)c2c1 | % | 0

Query block: Could you tell me which inhibition is on file for "COc1cccc(-c2nc3cc(C)ccc3c(=O)[nH]2)c1" ?
Result block: 25.2

Query block: // same read-out, input: "O=c1[nH]c(-c2cccc3ccccc23)nc2ccc(N3CCOCC3)cc12"
Result block: 39.2

Query block: // same read-out, input: "Cc1ccc2c(=O)[nH]c(-c3ccccc3C)nc2c1"
Result block: 30.8
